test: In vivo PK study in male CD1 mice; settings: male, CD1, mouse, plasma; mice, 10 mg/kg PO
property measured: log10 Cmax (log10 of the value in ng/mL)
Scale: log10; quantity: Cmax; unit before log: ng/mL

Below, 3 molecules whose answers are already recorded.
{"columns": ["chem smiles", "log10 Cmax"],
 "data": [
  ["C[C@H](n1cnc2c(-c3cnn(C)c3)nc(-c3ccc(Cl)cc3)cc2c1=O)C(C)(C)O", 3.33],
  ["C[C@@H](CO)n1cnc2c(-c3cccnc3)nc(-c3ccc(C(F)(F)F)cn3)cc2c1=O", 3.37],
  ["Cc1ccc(-c2cc3c(=O)n([C@@H](C)CO)cnc3c(-c3cccnc3)n2)cc1", 2.54]
]}

For the 5 molecules below, give their log10 Cmax values.
1. Cn1cc(-c2nc(-c3ccc(C(F)(F)F)nc3)cc3c(=O)n(CC(C)(C)O)cnc23)cn1
2. CC(C)(O)Cn1cnc2c(-c3cccnc3)nc(-c3ccc(Cl)cc3)cc2c1=O
3. Cn1cc(-c2nc(-c3ccc(C(F)(F)F)cn3)cc3c(=O)n(CC(C)(C)O)cnc23)cn1
4. CC(C)(O)Cn1cnc2c(-c3cccnc3)nc(-c3ccc(C(F)(F)F)nc3)cc2c1=O
5. CC(C)(O)Cn1cnc2c(-c3cccnc3)nc(-c3ccc(C(F)(F)F)cn3)cc2c1=O

Output:
1. 3.05
2. 3.12
3. 2.18
4. 3.17
5. 3.37

====

Record form. Attribute: IC50. Fill in for each entry.
molecular target: hERG channels (Homo sapiens); assay: hERG Inhibition Assay, patch clamp in hERG stably expressed HEK 293 cell line; conditions: read-out: hERG channel: IC50
Sequence (Q12809 whole entry): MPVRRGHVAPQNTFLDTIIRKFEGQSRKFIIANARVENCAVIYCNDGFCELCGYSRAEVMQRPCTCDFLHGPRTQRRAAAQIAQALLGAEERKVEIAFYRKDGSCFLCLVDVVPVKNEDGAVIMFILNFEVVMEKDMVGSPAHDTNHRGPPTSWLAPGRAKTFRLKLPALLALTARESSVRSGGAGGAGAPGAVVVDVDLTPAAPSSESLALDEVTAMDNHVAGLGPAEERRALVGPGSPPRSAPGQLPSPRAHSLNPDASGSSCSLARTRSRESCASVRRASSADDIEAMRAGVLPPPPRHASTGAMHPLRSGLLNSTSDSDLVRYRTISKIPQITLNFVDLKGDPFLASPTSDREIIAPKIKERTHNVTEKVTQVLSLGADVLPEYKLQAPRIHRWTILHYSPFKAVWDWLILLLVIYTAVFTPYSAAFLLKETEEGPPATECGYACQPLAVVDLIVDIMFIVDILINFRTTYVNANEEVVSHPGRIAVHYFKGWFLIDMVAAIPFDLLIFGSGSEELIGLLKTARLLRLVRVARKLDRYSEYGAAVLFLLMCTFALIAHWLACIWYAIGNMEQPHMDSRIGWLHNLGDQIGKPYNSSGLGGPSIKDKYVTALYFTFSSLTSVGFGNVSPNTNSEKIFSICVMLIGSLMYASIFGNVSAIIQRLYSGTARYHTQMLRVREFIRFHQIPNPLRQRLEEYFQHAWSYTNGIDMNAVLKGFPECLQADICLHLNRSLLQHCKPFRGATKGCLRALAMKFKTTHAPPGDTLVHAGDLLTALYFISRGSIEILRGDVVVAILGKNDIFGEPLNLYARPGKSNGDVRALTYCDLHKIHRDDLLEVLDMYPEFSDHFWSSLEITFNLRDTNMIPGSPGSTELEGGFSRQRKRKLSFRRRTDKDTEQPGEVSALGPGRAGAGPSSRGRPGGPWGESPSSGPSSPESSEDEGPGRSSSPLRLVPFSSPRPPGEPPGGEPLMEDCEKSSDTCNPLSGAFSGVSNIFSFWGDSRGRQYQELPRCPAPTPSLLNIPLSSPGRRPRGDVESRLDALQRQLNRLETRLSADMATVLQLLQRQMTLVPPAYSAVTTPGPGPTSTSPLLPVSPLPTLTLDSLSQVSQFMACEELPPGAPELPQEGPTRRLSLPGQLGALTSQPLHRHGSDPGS

Recorded results for 3 molecules are shown here.
{"columns": ["chem smiles", "measured target", "result"],
 "data": [
  ["C[C@@H](CO)n1cnc2c(-c3cnn(C)c3)nc(-c3ccc(Cl)cc3)cc2c1=O", "hERG channels (Homo sapiens)", "> 10 µM"],
  ["C[C@@H](CO)n1cnc2c(-c3cnn(C)c3)nc(-c3ccc(C(F)(F)F)nc3)cc2c1=O", "hERG channels (Homo sapiens)", "> 30 µM"],
  ["CC(C)(O)Cn1cnc2c(-n3ccnc3)nc(-c3ccc(C(F)(F)F)cn3)cc2c1=O", "hERG channels (Homo sapiens)", "11.5 µM"]
]}

Please look at the following molecule next.
Input: Return reported IC50; argument: C[C@@H](CO)n1cnc2c(-c3cccnc3)nc(-c3ccc(C(F)(F)F)nc3)cc2c1=O
Output: > 10 µM

====

experiment: In vivo PK study in male CD1 mice; conditions: male, CD1, mouse, plasma; mice, 1 mg/kg IV; read-out: T1/2 Mean (converted)
Is half-life at least 20 h? Then MET. If not, NOT MET.

Below, 7 molecules whose answers are already recorded.
{"columns": ["chem smiles", "category label"],
 "data": [
  ["Cn1cc(-c2nc(-c3ccc(C(F)(F)F)cn3)cc3c(=O)n(CC(C)(C)O)cnc23)cn1", "MET"],
  ["C[C@H](n1cnc2c(-c3cnn(C)c3)nc(-c3ccc(Cl)cc3)cc2c1=O)C(C)(C)O", "NOT MET"],
  ["CC(C)(O)Cn1cnc2c(-c3cccnc3)nc(-c3ccc(C(F)(F)F)cn3)cc2c1=O", "MET"],
  ["CC(C)(O)Cn1cnc2c(-c3cccnc3)nc(-c3ccc(C(F)(F)F)nc3)cc2c1=O", "NOT MET"],
  ["Cn1cc(-c2nc(-c3ccc(C(F)(F)F)nc3)cc3c(=O)n(CC(C)(C)O)cnc23)cn1", "NOT MET"],
  ["CC(C)(O)Cn1cnc2c(-c3cccnc3)nc(-c3ccc(Cl)cc3)cc2c1=O", "MET"],
  ["C[C@@H](CO)n1cnc2c(-c3cccnc3)nc(-c3ccc(C(F)(F)F)cn3)cc2c1=O", "NOT MET"]
]}

Now examine the next entry.
Input: Could you please find out whether Cc1ccc(-c2cc3c(=O)n([C@@H](C)CO)cnc3c(-c3cccnc3)n2)cc1 has half-life that meets 20 h or exceeds it?
Output: NOT MET
